# target under test: T1, human C5aR (CD88) (human, UniProt P21730 1-350)
# T1 sequence (looked up): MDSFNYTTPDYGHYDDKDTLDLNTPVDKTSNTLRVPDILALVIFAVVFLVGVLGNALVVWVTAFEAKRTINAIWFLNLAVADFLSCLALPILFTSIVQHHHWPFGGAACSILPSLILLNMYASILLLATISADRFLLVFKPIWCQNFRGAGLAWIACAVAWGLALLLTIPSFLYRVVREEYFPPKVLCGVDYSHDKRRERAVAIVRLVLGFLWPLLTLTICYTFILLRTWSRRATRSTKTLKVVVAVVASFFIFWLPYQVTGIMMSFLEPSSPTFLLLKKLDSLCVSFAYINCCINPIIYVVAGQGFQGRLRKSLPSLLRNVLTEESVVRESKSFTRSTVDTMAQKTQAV
# experimental protocol: cell-based or functional assay
Non-standard residues stand in square brackets, D forms with d. No end group written: not given here. Cha = N[C@@H](CC1CCCCC1)C(=O)O; dCha = N[C@H](CC1CCCCC1)C(=O)O; Nle = CCCC[C@H](N)C(=O)O; Orn = NCCC[C@H](N)C(=O)O
parameter measured: IC50 activity group, enzyme release assay

[
  {
    "binder": "Ac-F[Orn]P[dCha]W[Nle] (lactam (positions not given here); not fully specified (bridges); printed as Ac-Phe-[Orn-Pro-cha-Trp-Nle]) [Ac-Phe-[Orn-Pro-cha-Trp-Nle]]",
    "endpoint value": "≤ 50 nM"
  },
  {
    "binder": "Ac-FKA[Cha]AL[dA]Y-OH (SMILES CC(=O)N[C@@H](Cc1ccccc1)C(=O)N[C@@H](CCCCN)C(=O)N[C@@H](C)C(=O)N[C@@H](CC1CCCCC1)C(=O)N[C@@H](C)C(=O)N[C@@H](CC(C)C)C(=O)N[C@H](C)C(=O)N[C@@H](Cc1ccc(O)cc1)C(=O)O) [Ac-Phe-Lys-Ala-Cha-Ala-Leu-ala-Tyr-OH]",
    "endpoint value": "≤ 2000 nM"
  }
]
